Target: PD-1-Ig/PD-L1-His (Homo sapiens, UniProt Q9NZQ7)
Construct: [hPD-L1(19-239)-tobacco vein mottling virus protease cleavage site (TVMV)-His]; made in house; host or cells: HEK293T cells
Sequence (Q9NZQ7 with tags, fused parts or gaps): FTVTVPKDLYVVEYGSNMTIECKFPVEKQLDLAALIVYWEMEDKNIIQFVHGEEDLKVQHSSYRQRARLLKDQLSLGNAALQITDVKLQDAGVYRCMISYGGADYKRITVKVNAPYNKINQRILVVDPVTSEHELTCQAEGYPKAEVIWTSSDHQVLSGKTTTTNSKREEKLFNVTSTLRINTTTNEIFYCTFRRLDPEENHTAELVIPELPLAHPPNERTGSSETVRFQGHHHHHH
Experiment: PD-1/PD-L1 Homogenous Time-Resolved Fluorescence (HTRF) binding assay
Conditions: inhibition of PD-1-Ig binding to PD-L1-TVMV-His; numeric values
Below, each entry is listed alongside its reported IC50.
property: IC50 (nM)

INSERT INTO assay_data (molecule, property, resultvalue) VALUES
  ('CCCC[C@H]1C(=O)N[C@@H](CN)C(=O)N[C@H](C(=O)NCC(N)=O)CSCC(=O)N[C@@H](Cc2ccc(O)cc2)C(=O)N[C@H](C)C(=O)N[C@@H](CC(=O)O)C(=O)N2CCC[C@H]2C(=O)N[C@@H](Cc2cnc[nH]2)C(=O)N[C@@H](CCC(N)=O)C(=O)N2C[C@H](O)C[C@H]2C(=O)N[C@@H](Cc2c[nH]c3ccccc23)C(=O)N[C@@H](CO)C(=O)N[C@@H](Cc2cccc3ccccc23)c2nnnn2[C@@H](CCCC)C(=O)N1C', 'IC50', 2160),
  ('CCCC[C@H]1C(=O)N(C)[C@@H](CCCC)C(=O)N[C@@H](CCCNC(=N)N)C(=O)N[C@H](C(=O)NCC(N)=O)CSCC(=O)N[C@@H](Cc2ccccc2)c2nnnn2[C@@H](C)C(=O)N[C@@H](CC(N)=O)C(=O)N2CCC[C@H]2C(=O)N[C@@H](Cc2cnc[nH]2)C(=O)N[C@@H](CC(C)C)C(=O)N(C)CC(=O)N[C@@H](Cc2c[nH]c3ccccc23)C(=O)N[C@@H](CO)C(=O)N[C@@H](Cc2c[nH]c3ccccc23)C(=O)N1C (single isomer, unassigned)', 'IC50', 200);

====

Biological target: PD-1-Ig/PD-L1-His (Homo sapiens)
Construct: [hPD-L1(19-239)-tobacco vein mottling virus protease cleavage site (TVMV)-His]; made in house; host or cells: HEK293T cells
Experiment: PD-1/PD-L1 Homogenous Time-Resolved Fluorescence (HTRF) binding assay
Conditions: inhibition of PD-1-Ig binding to PD-L1-TVMV-His; range classes
pIC50: −log10 of the molar value. Starred links: 1 amine or outer side, 2 acyl side, 3 side chain; linkers in the order of their positions; H or OH if unused. Positions of bridges follow the written chain, without caps; N, C: chain ends. Non-standard residues stand in square brackets, D forms with d. Residues, ends and D or L forms follow the SMILES beside them. X1 = CCCC[C@@H](C(=O)[*:2])n1nnnc1[C@H](Cc1c[nH]c2ccccc12)N[*:1]; Hyp = O=C(O)[C@@H]1C[C@@H](O)CN1; NMeNle = CCCC[C@H](NC)C(=O)O; NMeA = CN[C@@H](C)C(=O)O; Orn = NCCC[C@H](N)C(=O)O
property: pIC50

INSERT INTO assay_data (molecule, resultvalue) VALUES
  ('CCCC[C@H]1C(=O)NC(CCCNC(=N)N)C(=O)N[C@H](C(=O)NCC(N)=O)CSCC(=O)N[C@@H](Cc2ccc(O)cc2)C(=O)N(C)[C@@H](C)C(=O)N[C@@H](CC(N)=O)C(=O)N2CCC[C@H]2C(=O)N[C@@H](Cc2cnc[nH]2)C(=O)N[C@@H](CC(C)C)C(=O)N2CCC[C@H]2C(=O)N[C@@H](Cc2c[nH]c3ccccc23)C(=O)N[C@@H](CO)C(=O)N[C@@H](Cc2cccc3ccccc23)c2nnnn2[C@@H](CCCC)C(=O)N1C (some centres unmarked) [Example 1006]', '5.00 to 7.00'),
  ('CCCC[C@H]1C(=O)N[C@@H](CCCN)C(=O)N[C@H](C(=O)NCC(N)=O)CSCC(=O)N[C@@H](Cc2ccc(O)cc2)C(=O)N(C)[C@@H](C)C(=O)N[C@@H](CC(N)=O)C(=O)N2CCC[C@H]2C(=O)N[C@@H](Cc2cnc[nH]2)C(=O)N[C@@H](CC(C)C)C(=O)N2C[C@H](O)C[C@H]2C(=O)N[C@@H](Cc2c[nH]c3ccccc23)C(=O)N[C@@H](CO)C(=O)N[C@@H](Cc2c[nH]c3ccccc23)c2nnnn2[C@@H](CCCC)C(=O)N1C [Example 1050] ({CH2CO}-Y[NMeA]NPHL[Hyp]WS[X1][NMeNle][Orn]CG-NH2; thioether N-13)', '5.00 to 7.00');
